Biological target: Glucose-dependent insulinotropic receptor (Homo sapiens)
Sequence (Q8TDV5 whole entry): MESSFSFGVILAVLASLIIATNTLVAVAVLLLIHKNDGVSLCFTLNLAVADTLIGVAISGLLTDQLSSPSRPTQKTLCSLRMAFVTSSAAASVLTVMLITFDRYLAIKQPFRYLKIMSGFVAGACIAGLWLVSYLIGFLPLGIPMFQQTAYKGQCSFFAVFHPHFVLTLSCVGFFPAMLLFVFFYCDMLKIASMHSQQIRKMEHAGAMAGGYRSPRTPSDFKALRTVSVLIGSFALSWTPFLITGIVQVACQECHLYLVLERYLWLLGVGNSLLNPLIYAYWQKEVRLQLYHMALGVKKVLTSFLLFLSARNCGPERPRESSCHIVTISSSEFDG
Test: Agonist activity at recombinant human GPR119 expressed in HEK293 cells assessed as increase in intracellular cAMP accumulation measured after 30 mins
REPORTED PROPERTY: pEC50
Answers are plain numbers, as −log10 of the molar value.

Record excerpt, results attached:
Recall the reported pEC50 of "C[C@@H](O[C@H]1CC[C@]2(CC1)COC(C)(C)C2)c1nc(-c2cc(F)c(CS(C)(=O)=O)cc2F)no1" when tested on Glucose-dependent insulinotropic receptor (Homo sapiens).
7.19

Report pEC50 from Glucose-dependent insulinotropic receptor (Homo sapiens) testing of CC(O[C@H]1CC[C@@]2(CC1)CC(C)(C)CCO2)c1nc(-c2ccc(CS(C)(=O)=O)c(F)c2)no1 (stereo not given in full)
7.54

State pEC50 (Glucose-dependent insulinotropic receptor (Homo sapiens)) of "CC1(C)C[C@]2(CC[C@H](OCc3nc(-c4ccc(S(C)(=O)=O)c(F)c4)no3)CC2)CO1" .
6.58

Give Glucose-dependent insulinotropic receptor (Homo sapiens) pEC50 for the following compound: "C[C@@H](O[C@H]1CC[C@@]2(CC1)CC(F)(F)CCO2)c1nc(-c2cc(F)c(CS(C)(=O)=O)c(F)c2)no1"
7.57

Provide pEC50, system Glucose-dependent insulinotropic receptor (Homo sapiens), entry CC(O[C@H]1CC[C@]2(CCCO2)CC1)c1nc(-c2ccc(CS(C)(=O)=O)c(F)c2)no1 (stereo not given in full)
6.14

Batch request: pEC50 for each of the following compounds.
1. C[C@H](O[C@H]1CC[C@]2(CC1)COC(C)(C)C2)c1nc(-c2ccc(CS(C)(=O)=O)c(F)c2)no1
2. CC(O[C@H]1CC[C@]2(CC1)COC(C)(C)C2)c1nc(-c2ccc(C(=O)N(C)C)c(F)c2)no1 (mixture of isomers)
3. CC(O[C@H]1CC[C@]2(CC1)COC(C)(C)C2)c1nc(-c2ccc(CS(C)(=O)=O)c(F)c2)no1 (mixture of isomers)
4. C[C@@H](O[C@H]1CC[C@]2(CC1)COC(C)(C)C2)c1nc(-c2cc(F)c(CS(C)(=O)=O)c(F)c2)no1

1. 6.37
2. 5.61
3. 7.36
4. 8.30

Fill: pEC50 (Glucose-dependent insulinotropic receptor (Homo sapiens)) for this compound CC(O[C@H]1CC[C@]2(CC1)COC(C)(C)C2)c1nc(-c2ccc(CS(C)(=O)=O)cc2)no1 (mixture of isomers)
6.37

All values here come from ChEMBL document CHEMBL4387781.
